The origin of these recorded values is PubChem BioAssay AID1159580.

# PROTOCOL_SUMMARY: chemical genetic growth profiling, strain panel (AID 1159580);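 also: tested at 20 µM; growth read once vehicle control cultures reached saturation at 30 °C; 1 = growth at the plate median or of vehicle wells; lower values mean less growth of the strain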
# PROTOCOL_CONDITIONS: S. cerevisiae deletion strains, growth OD, locus YNL322C, strain KRE1, stronger effect = lower value
Among all 5,500 compounds or so, about 2,000 (36%) were called active. Another 18% or so got no clear call; they are omitted. This is one part of the list.
METRIC: normalized growth

{"COMPOUND": "NC(=O)OCC(COC(N)=O)c1ccccc1", "METRIC": "normalized growth", "RESULT": "1.02 (inactive)"}
{"COMPOUND": "CC(=O)O[C@@H]1CC2C(C)(C)C(=O)C=C[C@]2(C)C2CC[C@@]3(C)[C@H](c4ccoc4)OC(=O)[C@H]4O[C@]43[C@@]21C (stereo partly specified)", "METRIC": "normalized growth", "RESULT": "1 (inactive)"}
{"COMPOUND": "CCN(CC)C(=O)c1[nH]c(C)c(C)c1C", "METRIC": "normalized growth", "RESULT": "0.985 (inactive)"}
{"COMPOUND": "CN1C[C@H](C(=O)N[C@]2(C)O[C@@]3(O)[C@@H]4CCCN4C(=O)[C@H](Cc4ccccc4)N3C2=O)C[C@@H]2c3cccc4[nH]cc(c34)C[C@H]21", "METRIC": "normalized growth", "RESULT": "0.996 (inactive)"}
{"COMPOUND": "CC(C)c1c(O)ccc2c1CCC1[C@@](C)(C=O)CCC[C@]21C (stereo partly specified)", "METRIC": "normalized growth", "RESULT": "0.333 (active)"}

Q: Quick one: normalized growth for O=C1NN=C2C3CC4CC12CC1(C3)C(=O)NN=C41 ?
Result: 1.02 (inactive)
